Reference for the values: PubChem BioAssay (NCI)

- Tested on: U251 CNS
- MEASUREMENT DESCRIPTION: NCI-60 one-dose screen, 48 h
- APPLIED CONDITIONS: 10 µM unless noted
- Method: Growth inhibition of the U251 human tumor cell line is measured as a screen for anti-cancer activity. Cells are grown in 96 well plates and exposed to the test compound for 48 hours. Compounds are tested at a single concentration, which is 10^-5 M for most compounds. The reported endpoint is percent growth (GI% or GIPRCNT), where numbers from 0 - 100% represent growth inhibition, and numbers from -100% - 0 represent cell death. For example, a value of 40 represents 60% growth inhibition. […]
Compounds without any hit were thinned out: in the full panel of roughly 83,000, 20% have a hit. Calls of active or inactive are those of the source. The calls were made as follows: active = growth percent below 10; inactive = the rest.
Please reply with one of these outcomes: active, inactive

Look over these answered cases.
compound=CCCCCCCCN(CCCCCCCC)C(=N)c1ccnc2ccccc12 system_tested="U251 CNS" qualitative_label=active
compound=Cn1cc(-c2ccc3nc(-c4ccc(CC(=O)Nc5cc(C(C)(C)C)no5)cc4)cnc3c2)cn1 system_tested="U251 CNS" qualitative_label=inactive
compound=CCN(CC)CCCNC(=O)c1ccc(N)cc1O system_tested="U251 CNS" qualitative_label=inactive
compound=NC(=S)N/N=C/C(=O)O system_tested="U251 CNS" qualitative_label=inactive
compound=O=S(=O)(Nc1ccsc1-c1nc(-c2ccccc2)no1)c1cc(Cl)cc(Cl)c1 system_tested="U251 CNS" qualitative_label=inactive

Please share the test call associated with Cn1ccnc1C(=O)/C=C/c1ccc(C(=O)Nc2ccc(S(F)(F)(F)(F)F)cc2)cc1 . active
